tested system: Steroid 17-alpha-hydroxylase/17,20 lyase (Rattus norvegicus)
Sequence (P11715 whole entry): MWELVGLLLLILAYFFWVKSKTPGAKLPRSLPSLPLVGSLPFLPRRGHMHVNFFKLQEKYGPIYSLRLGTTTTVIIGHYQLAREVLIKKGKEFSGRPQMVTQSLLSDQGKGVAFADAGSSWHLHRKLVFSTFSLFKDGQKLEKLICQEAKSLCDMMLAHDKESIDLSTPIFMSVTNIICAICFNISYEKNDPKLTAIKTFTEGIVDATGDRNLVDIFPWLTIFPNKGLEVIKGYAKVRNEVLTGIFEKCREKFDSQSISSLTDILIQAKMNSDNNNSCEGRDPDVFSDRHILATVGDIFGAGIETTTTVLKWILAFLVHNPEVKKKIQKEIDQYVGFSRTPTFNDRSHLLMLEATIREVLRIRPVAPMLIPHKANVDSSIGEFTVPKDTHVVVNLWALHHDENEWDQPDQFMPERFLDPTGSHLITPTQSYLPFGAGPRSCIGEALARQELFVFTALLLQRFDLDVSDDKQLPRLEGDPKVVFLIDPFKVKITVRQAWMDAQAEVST
pIC50: −log10 of the molar value.
Below, pIC50 values reported for Steroid 17-alpha-hydroxylase/17,20 lyase (Rattus norvegicus) across several publications.
readout name: pIC50

CNC(=O)c1ccc2cc([C@]3(O)CCn4cncc43)ccc2c1 :: 6.74
Oc1ccc2sc3c(c2c1)CCN(Cc1cccnc1)C3 :: 7.68
CCNC(=O)c1ccc2cc(C(O)(c3c[nH]cn3)C(C)C)ccc2c1 (racemic) :: 7.96
CC(=O)Nc1cccc(-c2ccc(C(C)(O)c3c[nH]cn3)cc2)c1 (racemic) :: 7.21
CC(=O)Nc1cccc(-c2ccc(C(O)c3cnc[nH]3)cc2)c1 (racemic) :: 6.49

P = COc1ccc2cc([C@](O)(c3c[nH]cn3)C(C)C)ccc2c1
Q = CNC(=O)c1ccc2cc(C(O)(c3c[nH]cn3)C(C)C)ccc2c1 (racemic)
Q) Param metric = pIC50; output whichever of P , Q has the minimum value. In your reply, give the label of the chosen option.
A) P
(P: 7.68, Q: 8.22)
